assay: Solubility in water at 25° C.; conditions: 25 °C
Reported endpoint: solubility (mg/mL)
Enter your answer as a number in mg/mL; do not include the unit.

query: Let me know recorded solubility for Cc1cc(C)c(C(=O)P(=O)(O)c2ccccc2)c(C)c1 , thanks.
result: 45

* * *

test: Solubility in water at 25° C.; conditions: 25 °C, Solubility in water at 25° C.
Reported endpoint: solubility (mg/mL)
Enter your answer as a number in mg/mL; do not include the unit.

1. Cc1cc(C)c(C(=O)P(=O)(O)C(=O)c2c(C)cc(C)cc2C)c(C)c1; 52

Query molecule follows.
query: Let me know recorded solubility for Cc1cc(C)c(C(=O)P(=O)(O)c2ccccc2)c(C)c1 , thanks.
result: 28

The measurements presented in this section are drawn from patent US11452674B2.
